Exercise: state measured IC50 for each of the molecules provided.
Biological target: ROCK2 (Homo sapiens, UniProt O75116)
Sequence (O75116 whole entry, species assumed): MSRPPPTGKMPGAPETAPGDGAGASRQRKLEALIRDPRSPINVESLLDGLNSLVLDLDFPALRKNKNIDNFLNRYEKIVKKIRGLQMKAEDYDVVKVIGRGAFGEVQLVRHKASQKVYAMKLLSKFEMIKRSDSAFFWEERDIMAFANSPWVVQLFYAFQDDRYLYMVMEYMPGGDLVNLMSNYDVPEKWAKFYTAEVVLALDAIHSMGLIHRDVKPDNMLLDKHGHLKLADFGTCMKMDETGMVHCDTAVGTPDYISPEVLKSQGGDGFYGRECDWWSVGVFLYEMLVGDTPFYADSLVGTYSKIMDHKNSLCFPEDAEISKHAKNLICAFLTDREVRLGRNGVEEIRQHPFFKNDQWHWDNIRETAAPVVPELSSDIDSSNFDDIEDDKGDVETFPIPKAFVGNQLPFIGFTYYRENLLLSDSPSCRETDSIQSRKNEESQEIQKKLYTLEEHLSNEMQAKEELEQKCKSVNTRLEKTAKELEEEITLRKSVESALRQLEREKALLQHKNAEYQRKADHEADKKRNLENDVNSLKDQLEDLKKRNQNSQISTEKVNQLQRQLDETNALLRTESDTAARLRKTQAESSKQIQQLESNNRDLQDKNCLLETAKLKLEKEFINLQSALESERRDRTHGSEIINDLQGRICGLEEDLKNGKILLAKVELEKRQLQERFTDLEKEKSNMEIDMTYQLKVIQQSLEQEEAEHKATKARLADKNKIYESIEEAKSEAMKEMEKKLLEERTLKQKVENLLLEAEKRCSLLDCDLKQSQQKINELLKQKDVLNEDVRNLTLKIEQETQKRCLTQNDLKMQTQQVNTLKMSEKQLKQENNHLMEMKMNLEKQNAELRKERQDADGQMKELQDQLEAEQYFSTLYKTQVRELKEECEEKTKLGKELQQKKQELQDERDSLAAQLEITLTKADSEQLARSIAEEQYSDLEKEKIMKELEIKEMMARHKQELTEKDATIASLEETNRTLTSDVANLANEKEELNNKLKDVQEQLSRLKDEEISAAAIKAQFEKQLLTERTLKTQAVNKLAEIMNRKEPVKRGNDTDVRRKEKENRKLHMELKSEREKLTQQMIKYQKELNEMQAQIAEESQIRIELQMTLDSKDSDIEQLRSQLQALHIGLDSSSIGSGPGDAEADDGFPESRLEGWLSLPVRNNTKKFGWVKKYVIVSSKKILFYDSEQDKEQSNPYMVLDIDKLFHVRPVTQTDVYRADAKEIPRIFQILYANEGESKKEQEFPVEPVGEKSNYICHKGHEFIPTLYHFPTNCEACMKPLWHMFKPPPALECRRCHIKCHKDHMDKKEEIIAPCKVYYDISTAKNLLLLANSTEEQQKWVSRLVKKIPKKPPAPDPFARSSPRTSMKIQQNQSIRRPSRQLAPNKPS
Experiment: ROCK2 kinase inhibition assay (LABCHIP 3000 Reader, FITC peptide substrate);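 note: rho kinase reaction read by separating phosphorylated from unphosphorylated peptide on chip, with inhibition of kinase activity computed per concentration across a dose-response series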
Conditions: read-out: ROCK2 Activity (ROCK2 IC50); 5 μM ATP, 1.5 μM peptide substrate, pH 7.5
Where a name gives a salt, the structure may show the parent alone.

Given item Cc1c(C(=O)NC2CC3(C2)CC(Oc2ncccc2C(N)=O)C3)cnn1-c1ccc(C#N)cc1 (stereo not shown) [Example 385, trifluoroacetic acid salt] , the value recorded as its IC50 is 5 to 50 nM

Reported IC50 of NC(=O)c1cccnc1OC1CC2(CC(NC(=O)c3cnn4c(C5CC5)c(OCC5(O)CCC5)ccc34)C2)C1 (stereo not shown) [Example 462, TFA] : < 5 nM

Reported IC50 ( Cc1ncc(-c2cc(C(=O)NC3CC4(C3)CC(Oc3ncccc3C(N)=O)C4)cc(C(F)(F)F)c2)s1 (stereo not shown) ) = < 5 nM

According to the records, this molecule COc1ccc2c(c1)CCc1c-2nn(C)c1C(=O)NC1CC2(C1)CC(Oc1ncccc1C(N)=O)C2 (stereo not shown) displays IC50 of 250 to 2500 nM

Notebook: COc1ccc(-n2ncc(C(=O)N[C@H]3CC4(C3)C[C@H](Oc3ncccc3C(N)=O)C4)c2C)cn1 (stereo partly shown) , IC50 read as 5 to 50 nM

Just so you know, measured IC50 for NC(=O)c1cccnc1OC1CC2(CC(NC(=O)c3nc(C(F)(F)F)n4cc(OCc5ccccc5)ccc34)C2)C1 (stereo not shown) came out at 5 to 50 nM

// sample Cc1c(C(=O)NC2CC3(C2)CC(Oc2ncccc2C(N)=O)C3)cnn1-c1ccc(S(C)(=O)=O)cc1 (stereo not shown) [Example 387, trifluoroacetic acid salt] , its IC50 was 5 to 50 nM

Entry CC(C)(O)CNc1ccc2c(C(=O)NC3CC4(C3)CC(Oc3ncccc3C(N)=O)C4)nc(C(F)F)n2c1 (stereo not shown) , IC50 reported as 250 to 2500 nM

// field: IC50; key: Cn1cncc1-c1ccc2c(C(=O)NC3CC4(C3)CC(Oc3ncccc3C(N)=O)C4)nc(C(F)F)n2c1 (stereo not shown) ; value = 5 to 50 nM

# IC50 (molecule: Cc1nn(C)cc1-c1ccc2c(C(=O)NC3CC4(C3)CC(Oc3ncccc3C(N)=O)C4)nc(C(F)F)n2c1 (stereo not shown) ) is < 5 nM

Field IC50 (entry NC(=O)c1cccnc1OC1CC2(CC(NC(=O)c3nc(C(F)(F)F)n4ccccc34)C2)C1 (stereo not shown) ) reads 5 to 50 nM

molecule CC(C)(CN)Oc1ccc2c(C(=O)NC3CC4(C3)CC(Oc3ncccc3C(N)=O)C4)nc(C(F)F)n2c1 (stereo not shown) , IC50 observed: 250 to 2500 nM

IC50 recorded for this molecule, Cn1cc(-c2cc(C(=O)NC3CC4(C3)CC(Oc3ncccc3C(N)=O)C4)cc(C(F)(F)F)c2)c(C(F)(F)F)n1 (stereo not shown) , is 5 to 50 nM
